Test system: ATP;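 note: ATP exposure 15 min at 22 °C before imaging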
Test: switch fluorescence ratio, 500 uM ATP over buffer (Cy3 cluster intensity, sum of 5 cycles each) (fold (ratio)); higher = stronger signal-on switching upon ATP binding; sequences stand for … in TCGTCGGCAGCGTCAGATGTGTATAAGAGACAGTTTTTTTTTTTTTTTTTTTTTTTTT…TC
Details: aptamer strand: ATP DNA aptamer (quencher-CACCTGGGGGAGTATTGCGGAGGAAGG + anchor), 100 nM annealed; ATP concentration: 500 uM
For each record, write down the corresponding switch fluorescence ratio.
Please respond with just the number, no unit label.

q: Complete the entry with switch fluorescence ratio for TGGGGTGGCT
a: 0.985

q: Return reported switch fluorescence ratio. Input sequence: CCTGGCAAGT
a: 1.87

q: Give the reported value of switch fluorescence ratio for this record: GAGGTTAAAT
a: 0.992

q: Supply reported switch fluorescence ratio belonging to this sequence: TTTTAACTAA
a: 1.01

q: Name the recorded switch fluorescence ratio of the sequence listed here: CCACGGGGGG
a: 1.27

q: In one line, give reported switch fluorescence ratio of the entry TGTGTGGGGA .
a: 1.01

q: Read the entry AAAGCTCGCT and write its reported switch fluorescence ratio.
a: 0.973

q: Give the measured switch fluorescence ratio for CCGATGTATA
a: 1.35

q: Tell me its switch fluorescence ratio given CTGTGCTGT as the entry.
a: 1.01

q: Read off the recorded switch fluorescence ratio for GGGTATCCTC
a: 0.986

q: Give the reported switch fluorescence ratio for this sequence. GAGAAAGGCT
a: 0.97

q: Look up and report measured switch fluorescence ratio for this entry: AGTTTTGCTC
a: 0.981

q: In one line, give reported switch fluorescence ratio of the entry TATAGAGGGA .
a: 0.988

q: Supply switch fluorescence ratio value. Item: AGGTGATTAG
a: 0.986

q: Please supply the value of reported switch fluorescence ratio for the item TTGTTGGGG
a: 0.994

q: Complete the entry with switch fluorescence ratio for GCGAGATGCG
a: 0.972

q: Please list switch fluorescence ratio recorded for the sequence TTATATTTGA
a: 0.98

q: Provide measured switch fluorescence ratio value, entry: GGTTAGATAC
a: 1.19

q: For the sequence TTCTGTGGGA , give its reported switch fluorescence ratio.
a: 1

q: Tell us which switch fluorescence ratio value is on record for CATTCGTTTC
a: 1.15

q: Read the entry AATATTGTT and write its reported switch fluorescence ratio.
a: 0.996

###

Tested on: ATP;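 note: ATP exposure 15 min at 22 °C before imaging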
Assay: switch fluorescence ratio, 500 uM ATP over buffer (Cy3 cluster intensity, sum of 5 cycles each) (fold (ratio)); higher = stronger signal-on switching upon ATP binding; sequences stand for … in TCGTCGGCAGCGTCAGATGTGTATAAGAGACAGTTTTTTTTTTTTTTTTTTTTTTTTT…TC
Settings: aptamer strand: ATP DNA aptamer (quencher-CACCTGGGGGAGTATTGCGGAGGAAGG + anchor), 100 nM annealed; ATP concentration: 500 uM
So I've got a bunch of sequences here, and I need their switch fluorescence ratio values.
Lab note: jot down the number only; don't add units.

q: Please give measured switch fluorescence ratio of the following entry: AATCATAGTA
a: 1.01

q: Fill in switch fluorescence ratio for record GTGCTGGTGG
a: 0.984

q: State its switch fluorescence ratio for this sequence: TATTTGGTTG
a: 0.995

q: Quickly give me recorded switch fluorescence ratio for CGTTACGAGC
a: 1.04

q: Tell us which switch fluorescence ratio value is on record for AGGGGTACAG
a: 0.995

q: Tell me switch fluorescence ratio reported for CCATAGGAAT
a: 1.06

q: Return reported switch fluorescence ratio. Input sequence: TGGGGCGTTT
a: 1.01

q: Give the reported switch fluorescence ratio for this sequence. TTTGCTTGGT
a: 0.994

q: Using the record for ACTTAAAAGG , state its measured switch fluorescence ratio.
a: 1.01

q: Please report switch fluorescence ratio for the following sequence: TCAATTCTAC
a: 1.02

q: Identify switch fluorescence ratio associated with the sequence CCGGGTAATG
a: 1.27

q: // fetch switch fluorescence ratio given entry TTCGGAGTTA
a: 1.09

q: Give switch fluorescence ratio for the following sequence: GCCATATACA
a: 1.04

q: Identify measured switch fluorescence ratio corresponding to TCATTTATAT
a: 0.98

q: Report measured switch fluorescence ratio; entry is TAGGGGGGCT
a: 0.968

q: Find the measured switch fluorescence ratio of TAAAAGCAAT and report it.
a: 2.1

q: Output measured switch fluorescence ratio for this item: TACTTTGTC
a: 1.03

q: Identify switch fluorescence ratio associated with the sequence TAGCATGTTC
a: 1.09

q: Give me measured switch fluorescence ratio, please, for this sequence: GGGGAACTTC
a: 1.05

q: Supply reported switch fluorescence ratio belonging to this sequence: TATGTAATGG
a: 1.02

q: Quickly give me recorded switch fluorescence ratio for AAAAATCGAG
a: 1

q: Could you please provide reported switch fluorescence ratio for GTTCTTTGGG ? Thanks!
a: 0.995

q: State its switch fluorescence ratio: TAGCTGAGTT
a: 0.984

q: Identify measured switch fluorescence ratio associated with GGTGGACAAC
a: 0.997

q: Look up and state reported switch fluorescence ratio for CGTCCACGGA
a: 0.994

q: Return value of switch fluorescence ratio for input ACATTTTAAG , no commentary.
a: 1

q: Fill in reported switch fluorescence ratio for this entry: GAATTAGTTA
a: 1.01

q: Identify measured switch fluorescence ratio associated with GGAATGCTAT
a: 0.996

q: Supply recorded switch fluorescence ratio for TTTTGATTCT here.
a: 1.01

q: Identify measured switch fluorescence ratio associated with ATCATGGTGC
a: 1.13

q: Respond only with switch fluorescence ratio recorded for CGGAGGGTGG
a: 0.961

q: State its switch fluorescence ratio: TGGCAAAGTT
a: 0.985

q: Determine its reported switch fluorescence ratio: GGGATTCAG
a: 1.02

q: // fetch switch fluorescence ratio given entry GTTATAACG
a: 1

q: Kindly indicate its recorded switch fluorescence ratio. Item: AGTGGGGGAT
a: 0.988

q: Provide switch fluorescence ratio value for the following sequence: TAGGAGTTGT
a: 0.995

q: Report switch fluorescence ratio, nothing else, for this sequence: TAATGAGGAA
a: 1

q: Name the recorded switch fluorescence ratio of the item TGTTTATTTC in your answer.
a: 1.03

q: Determine its reported switch fluorescence ratio: CGGGTATACT
a: 1.1

q: Determine its reported switch fluorescence ratio: AAAAATGGGT
a: 1

q: Output measured switch fluorescence ratio for this item: TCGTTAATTA
a: 1.06

q: Report switch fluorescence ratio, nothing else, for this sequence: CGAGTCTCGT
a: 1.03

q: Recall and state the measured switch fluorescence ratio for ACTATGGTAA .
a: 0.97

q: Fill in switch fluorescence ratio for record GGGTTTAGTG
a: 0.962

q: For GATAATAAAC , write its switch fluorescence ratio.
a: 1.06

q: Using the record for CCAAGGGTGC , state its measured switch fluorescence ratio.
a: 1.63

q: Report switch fluorescence ratio, nothing else, for this sequence: GGGTTGTTAG
a: 0.996

q: Complete the entry with switch fluorescence ratio for TCTGGGTTAT
a: 0.988

q: Output measured switch fluorescence ratio for this item: GCGCGCTAAG
a: 0.977

q: Give switch fluorescence ratio for GCTTGTATTA
a: 0.985

q: Tell me measured switch fluorescence ratio for AAACGGATGG please.
a: 0.968

q: Please report the measured switch fluorescence ratio for TAGGGATGGG
a: 1.02

q: For the sequence AGCAGGGCTG , give its measured switch fluorescence ratio value.
a: 0.996

q: Provide measured switch fluorescence ratio value, entry: AGTGGAAAC
a: 1

q: Using known records, supply switch fluorescence ratio for ATTAGGGAGC
a: 0.989

q: Determine its reported switch fluorescence ratio: ATAGTATTTT
a: 0.995

q: Indicate its recorded switch fluorescence ratio; the sequence in question is GAAATATCAA
a: 0.974

q: Look up and state reported switch fluorescence ratio for TGCCGCCTTG
a: 0.979

q: Indicate the recorded switch fluorescence ratio value for this sequence: GGGGGTCACA
a: 0.989

q: Tell me measured switch fluorescence ratio for TTTTAAGAGG please.
a: 1.01

q: Read off the recorded switch fluorescence ratio for GTCGTAAGTT
a: 1.01

q: Consider the sequence AGGTCTAAGG and give its recorded switch fluorescence ratio.
a: 1

q: State its switch fluorescence ratio for this sequence: TTACGGGGAT
a: 1.04

q: Give reported switch fluorescence ratio value for AAGTCCCTTC
a: 1.01

q: Let me know recorded switch fluorescence ratio for TATGGGTACT , thanks.
a: 1

q: Check the records and state switch fluorescence ratio for TGCATTCAGT
a: 0.99

q: Quickly give me recorded switch fluorescence ratio for AGCATACAAA
a: 0.98

q: Let me know recorded switch fluorescence ratio for CAATGGAAAT , thanks.
a: 0.984

q: Specify switch fluorescence ratio for GGTACTTGTT and stop.
a: 1.05

q: Give a short answer stating reported switch fluorescence ratio for AGAGTGGCAA .
a: 1.04

q: Provide measured switch fluorescence ratio value, entry: ATAGCATTAT
a: 1.14

q: Give a short answer stating reported switch fluorescence ratio for CGGGGATGTA .
a: 0.972

q: Find the measured switch fluorescence ratio of GCTCGTAGTT and report it.
a: 1.01

q: Return switch fluorescence ratio (reported value) for this sequence: TTGGGAAATT
a: 1.02

q: Give the reported switch fluorescence ratio for this sequence. GCAGTAGTGG
a: 1.2

q: Write down switch fluorescence ratio measured for item GGGGTTCGTC
a: 1

q: Complete the entry with switch fluorescence ratio for GGGAGGTTTT
a: 1.04

q: Provide measured switch fluorescence ratio value, entry: TGAAATAGGT
a: 0.99

q: Give recorded switch fluorescence ratio. TGACGAAGCG
a: 1.05

q: Quick one: give measured switch fluorescence ratio for AGGGGGATAG
a: 0.967

q: Give reported switch fluorescence ratio value for TGTTGCGGGG
a: 0.995

q: For the sequence ATAAGTTGGG , give its measured switch fluorescence ratio value.
a: 0.968

q: For the sequence CGAGAAATTT , give its measured switch fluorescence ratio value.
a: 1.01

q: Note switch fluorescence ratio for the sequence shown: TCGTTTACGC
a: 1.02

q: Return switch fluorescence ratio for the following sequence: ATGTCCAAGG
a: 1

q: Provide switch fluorescence ratio value for the following sequence: AAGGAATAGT
a: 1.01
